I'd be grateful if you could share measured IC50 of in vitro cell killing on NUGC4-hClaudin18.2 cells (CCK-8 cell viability, 120 h) for these entries.
testSystem: T1, human Claudin18.2 (human, UniProt P56856 1-261)
T1 sequence (looked up): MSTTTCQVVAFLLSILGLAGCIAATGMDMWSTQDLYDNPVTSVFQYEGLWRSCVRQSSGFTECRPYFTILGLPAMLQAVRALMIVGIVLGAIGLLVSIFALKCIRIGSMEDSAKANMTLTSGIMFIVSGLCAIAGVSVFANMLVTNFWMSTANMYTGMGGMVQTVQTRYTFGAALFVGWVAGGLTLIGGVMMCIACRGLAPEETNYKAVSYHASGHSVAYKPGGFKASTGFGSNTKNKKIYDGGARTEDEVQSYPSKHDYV
method: cell-based or functional assay
Record the value in nM, omitting the unit from your answer.

Lookup: Given the binder 9D1-LD-72 (antibody, human IgG1, kappa, V domains shown, LD-72 linker-drug (Exatecan) on reduced interchain cysteines (Conjugation Method 1, DAR 8)) VH: QIQLVQSGAEVKKPGASVKISCKASGYSFTDYHMNWVRQAPGKGLEWIGNIDPYYGSPTYNHKFKGRVTLTVDTSTSTAYMELSSLRSEDTAVYYCANYGRGNSFPYWGQGTLVTVSS VL: DIVMTQSPSSLAVSLGERATINCKSSQSLLNSGNQRNYLTWYQQKPGQPPKLLIYWASTRESGVPDRFSGSGSGTDFTLTISSLQAEDVAVYYCQNDYSFPFTFGQGTKLEIKR , what is its reported IC50 of in vitro cell killing on NUGC4-hClaudin18.2 cells (CCK-8 cell viability, 120 h)?
Found: 0.553

Lookup: What does the data say about its IC50 of in vitro cell killing on NUGC4-hClaudin18.2 cells (CCK-8 cell viability, 120 h)? Entry: 9D1-GGFG-Exatecan (antibody, human IgG1, kappa, V domains shown, MC-GGFG-Exatecan linker-drug on reduced interchain cysteines (Conjugation Method 1, DAR 8)) VH: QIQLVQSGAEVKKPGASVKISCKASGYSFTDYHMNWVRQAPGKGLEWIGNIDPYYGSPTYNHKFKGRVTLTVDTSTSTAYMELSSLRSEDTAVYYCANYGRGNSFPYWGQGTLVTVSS VL: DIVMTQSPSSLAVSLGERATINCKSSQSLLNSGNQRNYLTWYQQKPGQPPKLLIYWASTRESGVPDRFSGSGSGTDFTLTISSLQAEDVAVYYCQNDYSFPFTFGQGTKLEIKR
Found: 0.184

Lookup: If you can, please state the reported IC50 of in vitro cell killing on NUGC4-hClaudin18.2 cells (CCK-8 cell viability, 120 h) value of 9D1-LD-38 (antibody, human IgG1, kappa, V domains shown, LD-38 linker-drug (Exatecan) on reduced interchain cysteine; main conjugation form one LD-38 molecule per light chain; LD-38 linker-drug (Exatecan) on reduced interchain cysteines; main conjugation form three LD-38 molecules per heavy chain (DAR 8 nominal, 7.8 measured)) VH: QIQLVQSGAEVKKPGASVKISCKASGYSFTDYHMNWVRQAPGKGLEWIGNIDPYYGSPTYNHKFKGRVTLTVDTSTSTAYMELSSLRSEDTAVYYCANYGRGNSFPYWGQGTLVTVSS VL: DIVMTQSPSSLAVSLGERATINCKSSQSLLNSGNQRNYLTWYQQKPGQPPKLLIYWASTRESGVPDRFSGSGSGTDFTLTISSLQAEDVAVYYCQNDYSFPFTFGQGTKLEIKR .
Found: 0.728
